- tested_on: Mitogen-activated protein kinase 14 (Homo sapiens)
- Sequence (Q16539 whole entry): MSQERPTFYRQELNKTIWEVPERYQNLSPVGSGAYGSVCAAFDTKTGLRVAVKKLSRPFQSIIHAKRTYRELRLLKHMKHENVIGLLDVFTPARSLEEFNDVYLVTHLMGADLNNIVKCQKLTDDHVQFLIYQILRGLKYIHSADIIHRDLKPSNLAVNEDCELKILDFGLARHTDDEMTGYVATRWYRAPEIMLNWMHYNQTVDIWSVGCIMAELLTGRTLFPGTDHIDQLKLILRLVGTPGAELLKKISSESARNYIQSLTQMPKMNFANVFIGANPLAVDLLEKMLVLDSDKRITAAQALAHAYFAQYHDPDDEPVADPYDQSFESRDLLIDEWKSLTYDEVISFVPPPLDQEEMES
- measurement_notes: Inhibition of human recombinant full length GST-tagged p38alpha expressed in Escherichia coli preincubated for 2 hrs followed by ATP addition and measured after 1 hr by Alpha screen assay
pIC50: −log10 of the molar value.
endpoint_name: pIC50

{"record_smiles": "CC(C)(C)c1cc(NC(=O)N[C@H]2CC[C@@H](Oc3ccc4nnc(N5CCCCC5)n4c3)c3ccccc32)n(-c2ccc(Cl)c(O)c2)n1", "pIC50": 9.30}

A. Cc1ccc(-n2nc(C(C)(C)C)cc2NC(=O)N[C@H]2CC[C@@H](Oc3ccc4nnc(C5CCCC5)n4c3)c3ccccc32)cc1
B. CC(C)(C)c1cc(NC(=O)N[C@H]2CC[C@@H](Oc3ccc4nnc(N5CCC(O)CC5)n4c3)c3ccccc32)n(-c2ccc(CO)cc2)n1
C. CC(C)(C)c1cc(NC(=O)N[C@H]2CC[C@@H](Oc3ccc4nnc(N5CCCCC5)n4c3)c3ccccc32)n(-c2cccc(CN3CCNCC3)c2)n1
Put these in order: smallest pIC50 first, largest last. Use the labels to give the ranking in the order requested. C, B, A
(C: 9.10, B: 9.40, A: 10.00)
